target: LPAR1 (Homo sapiens); construct: host or cells: U2OS; experiment: LPAR1 FLIPR Assay; type: cell-based; details: U2OS cells stably expressing LPAR1; LPA (EC80); Calcium 6 FLIPR dye; read-out: Maximum Inhibition
Sequence (Q92633 whole entry): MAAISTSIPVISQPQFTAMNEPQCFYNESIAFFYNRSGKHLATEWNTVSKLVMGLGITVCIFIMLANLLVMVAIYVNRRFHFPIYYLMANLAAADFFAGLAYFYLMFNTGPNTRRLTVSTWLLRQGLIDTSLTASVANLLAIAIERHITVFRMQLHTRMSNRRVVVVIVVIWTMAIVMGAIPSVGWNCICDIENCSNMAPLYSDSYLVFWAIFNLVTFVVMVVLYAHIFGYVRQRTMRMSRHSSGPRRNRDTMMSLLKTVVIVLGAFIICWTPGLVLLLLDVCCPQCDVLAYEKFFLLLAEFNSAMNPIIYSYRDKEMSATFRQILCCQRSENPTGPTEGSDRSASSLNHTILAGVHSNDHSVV
Below is a list of entries, each paired with its recorded Emax value.
// return numeric value only (unit: %, not printed)

COc1cc(C(=O)N(CCCCC(=O)NS(=O)(=O)c2ccncc2)CCCc2ccccc2)cc(OC)c1C : 83
O=C(O)CCCCN(CCCc1ccccc1)C(=O)C1(c2ccc(OC(F)(F)F)cc2)CC1 : 48
COc1cc(C(=O)N(CCCc2cc(F)cc(F)c2)CCSCC(=O)O)cc(OC)c1C : 32
COc1cc(C(=O)N(CCCCC(=O)O)CCCc2ccc(Cl)cc2)cc(OC)c1C : 83
COc1cc(C(=O)N(CCCOC(=O)NS(=O)(=O)c2ccc(F)cc2)CCCc2ccccc2)cc(OC)c1C : 51
COc1cc(C(=O)N(CCCCC(=O)NS(=O)(=O)C(C)C)CCCc2ccccc2)cc(OC)c1C : 92
COc1ccc(C2(C(=O)N(CCCCC(=O)O)CCCc3ccccc3)CC2)cc1Cl : 85
COc1cc(C(=O)N(CCCc2ccc(F)cc2F)CCOCC(=O)O)cc(OC)c1C : 83

Prompt: Note down Emax recorded for COc1cc(C(=O)N(CCCCC(=O)O)[C@@H](C)CCc2ccccc2)cc(OC)c1C
Completion: 69

Prompt: Note down Emax recorded for COc1cc(C(=O)N(CCCCC(=O)O)CCCc2cc(F)cc(F)c2)cc(OC)c1C
Completion: 74

Prompt: Note down Emax recorded for COc1cc(C(=O)N(CCCc2ccccc2)CCCC(C)C(=O)NS(C)(=O)=O)cc(OC)c1C (centres unmarked)
Completion: 99

Prompt: Note down Emax recorded for COc1cccc(C2(C(=O)N(CCCCC(=O)O)CCCc3ccccc3)CC2)c1
Completion: 39

Prompt: Note down Emax recorded for COc1ccc([C@@H](OC)C(=O)N(CCCCC(=O)O)CCCc2ccccc2)cc1
Completion: 71

Prompt: Note down Emax recorded for COc1cc(C(=O)N(CCCc2cccc(F)c2)CCSCC(=O)O)cc(OC)c1C
Completion: 93

Prompt: Note down Emax recorded for COc1cc(C(=O)N(CCCCC(=O)O)CCCc2ccco2)cc(OC)c1C
Completion: 74

Prompt: Note down Emax recorded for COc1cc(C(=O)N(CCCCC(=O)O)CCCc2ccc(C)cc2)cc(OC)c1C
Completion: 90

Prompt: Note down Emax recorded for COc1ccc(C(C)(C)C(=O)N(CCCCC(=O)O)CCCc2ccccc2)cc1
Completion: 14
